B1: library; numbered along this chain (parent)
chain: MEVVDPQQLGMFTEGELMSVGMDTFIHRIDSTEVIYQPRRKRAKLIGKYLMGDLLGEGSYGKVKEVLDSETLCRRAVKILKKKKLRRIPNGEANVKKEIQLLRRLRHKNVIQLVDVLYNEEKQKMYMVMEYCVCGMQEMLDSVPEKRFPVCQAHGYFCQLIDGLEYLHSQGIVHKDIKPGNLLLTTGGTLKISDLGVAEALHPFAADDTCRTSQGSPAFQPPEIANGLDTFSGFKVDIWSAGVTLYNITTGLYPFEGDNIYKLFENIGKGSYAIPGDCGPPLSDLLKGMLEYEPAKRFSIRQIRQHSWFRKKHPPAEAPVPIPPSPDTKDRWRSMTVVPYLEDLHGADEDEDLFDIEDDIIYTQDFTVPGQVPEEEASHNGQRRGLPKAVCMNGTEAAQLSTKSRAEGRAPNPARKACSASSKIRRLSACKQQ

# Variants of: B1
# protocol: STK11 functional score (HeLa growth suppression), rescaled enrichment; synonymous median = 1, nonsense median = 0 (normalised score)
# measurement-setup: with HeLa; variant type: missense
Lab note: compare STK11 functional score against 1. Equal or greater, write condition met. Smaller, write condition not met.

[
  {
    "variant-label": "P387H",
    "cat": "condition met"
  },
  {
    "variant-label": "V128P",
    "cat": "condition not met"
  },
  {
    "variant-label": "G15A",
    "cat": "condition not met"
  },
  {
    "variant-label": "G276R",
    "cat": "condition met"
  }
]

// inclusive: STK11 functional score at least 1? input: D358N condition not met

Decide: STK11 functional score of I360R >= 1? condition not met

Reported STK11 functional score reaches at least 1 for I267G ? condition not met

Item A398S with STK11 functional score of 1 or above? condition met
